# System: HCC1569;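 further: TDF denotes transformed human dermal fibroblasts of mesenchymal origin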
# Test description: cell number relative to DMSO (% of DMSO); higher = more cells (less growth inhibition / toxicity)
# Experimental context: concentration: 10 µM; 24 h
Each entry below carries its recorded cell number.
Please give the numeric answer without any surrounding text.

molecule="NC(Cc1cc(O)c(O)cc1O)C(=O)O (racemic) [6-Hydroxy-DL-DOPA]" quantity_name="cell number" test_result=98.2
molecule="NCC(CC(=O)O)c1ccc(Cl)cc1 (racemic)" quantity_name="cell number" test_result=99.3
molecule="CCC1(O)C(=O)OCc2c1cc1n(c2=O)Cc2cc3ccccc3nc2-1 (stereo not drawn)" quantity_name="cell number" test_result=54.2
molecule="COCC1OC(=O)c2coc3c2C1(C)C1=C(C3=O)C2CCC(=O)C2(C)CC1OC(C)=O (stereo not drawn) [Wortmannin from Penicillium funiculosum]" quantity_name="cell number" test_result=41.7
molecule=Cl.O=C(N[C@H]1CN2CCC1CC2)c1c[nH]c2ccsc2c1=O quantity_name="cell number" test_result=106

The molecule identified as COc1ccc(C(=O)c2c(C)n(CCN3CCOCC3)c3ccccc23)cc1 registered its cell number at 110

The molecule identified as COC(=O)C1(O)CC2OC1(C)n1c3ccccc3c3c4c(c5c6ccccc6n2c5c31)C(=O)NC4 (stereo not drawn) [K-252a, Nocardiopsis sp.] registered its cell number at 33.7

The molecule identified as CC(=O)C1=C(O)C2C3c4c[nH]c5cccc(c45)CC3C(C)(C)N2C1=O (stereo not drawn) registered its cell number at 95.5
